Where do these numbers come from? They come from PubChem BioAssay (NCI).

- Tested on: MDA-MB-231 breast
- test_details: NCI-60 one-dose screen, 48 h (100 = growth as untreated, 0 = no growth, -100 = all killed)
- assay_setup: 10 µM unless noted
The panel holds about 83,000 compounds, 20% with a hit somewhere; the sample as a whole holds those more often. Calls of active or inactive are those of the source. How the source made its calls: active means growth percent below 10; inactive means the rest.
endpoint_label: growth

Cc1ccc(S(=O)(=O)N/N=C2\CC3CCC2(C)C3(C)C)cc1 (centres undefined) :: 89% (inactive)
COc1ccc(C=C2c3ccccc3-c3ccccc32)cc1 :: 59.2% (inactive)
COc1ccc(C2CC(c3ccc4ccccc4c3)=NN2c2nc(O)c(C3=c4cc(OC)ccc4=NC3=O)s2)cc1 (centres undefined) :: -54.7% (active)
CC1(C)CC[C@]23CC[C@]4(C)[C@H](CC[C@@H]5[C@@]6(C)C/C(=C/c7ccncc7)C(=O)C(C)(C)[C@@H]6CC[C@]54C)[C@H]2[C@H]1OC3=O :: 37.5% [100 µM] (inactive)
